# Tested on: corn borers
# condition_summary: concentration 600 mg/kg
Please respond with yes when measured Corn borer Mortality (%) is strictly beneath 20%, and with no in all other cases.

                                   compound  target_entity  answer_label
0  CCOC(=O)C1Cc2c([nH]c3ccccc23)C(C)=N1 (centres unmarked) [Ib-14]    corn borers           yes
1  C[C@@H]1N[C@H](C(=O)NN=Cc2ccc3cc(O)ccc3c2)Cc2c1[nH]c1ccccc21 [Ic-14]    corn borers            no
2  CCCCCC(=O)NNC(=O)[C@@H]1Cc2c([nH]c3ccccc23)[C@H](C)N1 [Id-5]    corn borers            no
3  C[C@@H]1N[C@H](C(=O)NN=Cc2ncc[nH]2)Cc2c1[nH]c1ccccc21 [Ic-21]    corn borers            no
4  COc1cccc(C=NNC(=O)[C@@H]2Cc3c([nH]c4ccccc34)[C@H](C)N2)c1 [Ic-9]    corn borers            no

---

Entries and their Relative inhibition rate (%) In vivo protection
# Tested on: tobacco mosaic virus (TMV)
# procedure_text: Anti-TMV in vivo protective effect
# Set-up: species or system tobacco mosaic virus (host Nicotiana tabacum L.cv.Xanthi NN)
# condition_summary: treatment dose 500 μg/mL
measurement_kind: Relative inhibition rate (%) In vivo protection

>>> print(df.to_string())
                                    molecule  measured_result
 0  C[C@@H]1N[C@H](C(=O)NN=CC(C)(C)C)Cc2c1[nH]c1ccccc21 [Ic-26]            66.8%
 1  C[C@@H]1N[C@H](C(=O)NCCO)Cc2c1[nH]c1ccccc21 [Ib-18]              41%
 2  Cc1nc(/C=C/C(=O)O)cc2c1[nH]c1ccccc12 [Ia-14]            28.4%
 3  COc1ccc(C=NNC(=O)[C@@H]2Cc3c([nH]c4ccccc34)[C@H](C)N2)cc1OC [Ic-11]            42.3%
 4  C[C@@H]1N[C@H](C(=O)NN=Cc2cccs2)Cc2c1[nH]c1ccccc21 [Ic-20]            61.3%
 5  CCOC(=O)c1cc2c([nH]c3ccccc32)c(C)n1 [Ia-10]            23.7%
 6  C[C@@H]1N[C@H](C(=O)NNC(=O)c2ccncc2)Cc2c1[nH]c1ccccc21 [Id-3]            42.1%
 7  C[C@@H]1N[C@H](C(=O)NN=Cc2ncc[nH]2)Cc2c1[nH]c1ccccc21 [Ic-21]            48.1%
 8  Cc1nnsc1C(=O)NNC(=O)[C@@H]1Cc2c([nH]c3ccccc23)[C@H](C)N1 [Id-2]            51.3%
 9  CCOC(=O)[C@@H]1Cc2c([nH]c3ccccc23)[C@H](CC)N1 [Ib-10]            36.6%
10  C[C@@H]1N[C@H](C(=O)NN=Cc2ccccn2)Cc2c1[nH]c1ccccc21 [Ic-17]            31.4%
11  O=C(O)/C=C/c1cc2c([nH]c3ccccc32)c(-c2cccnc2)n1 [Ia-16]            21.3%
12  CCOC(=O)[C@H]1Cc2c([nH]c3ccccc23)[C@@H](C)N1 [Ib-12]            41.9%
13  C[C@@H]1N[C@H](C(=O)NNC(=O)c2ccccc2)Cc2c1[nH]c1ccccc21 [Id-4]              40%
14  COc1cccc(C=NNC(=O)[C@@H]2Cc3c([nH]c4ccccc34)[C@H](C)N2)c1 [Ic-9]            54.7%
15  CCOC(=O)C1Cc2c([nH]c3ccccc23)CN1 (stereo not drawn) [Ib-9]            40.4%
16  CCCCCCCC=NNC(=O)[C@@H]1Cc2c([nH]c3ccccc23)[C@H](C)N1 [Ic-24]            59.6%
17  Cc1nccc2c1[nH]c1cc(OC(=O)C(C)(C)C)ccc12 [Ia-8]            14.4%
